target: ScBzz1-D2; test: SPOT peptide array binding signal intensity (averaged, normalized) (arbitrary units (background-subtracted, floor 0; scale differs between SH3 domains)); higher = stronger binding of the SH3 domain to the peptide
Hi, to clarify the labels: T covers SPOT peptide array binding signal intensity from 30 upward, F covers anything below 30.

{"columns": ["Binder", "Class label"],
 "data": [
  ["WTQRRGPLVVYAEDN", "T"],
  ["VATSTSPKLPPRGKQ", "F"],
  ["YSRKKLPVVLSKMTL", "T"],
  ["AAAPKHAPPPVPNET", "F"],
  ["RSRRSSFAYPQQVAI", "F"],
  ["DGNEEKPLLPTRPNK", "F"],
  ["IKTRSVPKIPSIESV", "F"]
]}

Measured values drawn from the supplement of paper PMC4466140 for this set.
